Test: qHTS assay to identify small molecule antagonists of the thyroid receptor (TR) signaling pathway - cell viability counter screen (AID 743064); further: nearly all actives have a fitted effect of over 50% in size
Conditions: GH3.TRE-Luc viability, CellTiter-Fluor, 24 h; series mostly up to 70.3 µM
Results filed as inconclusive are left out. The source made the active and inactive calls. The call rests on the fitted dose curve; in most records, active means well fitted cell-killing curve with a large enough effect in the repeat runs; inconclusive means weak or mixed curves, or effect the other way; inactive means no such curve, though single readings can be large or run the other way.
Pick from True (active), False (inactive) when you respond.

Completed entries (count: 2):
[ask] Which result was noted for this molecule in the test: c1cc(OCC2CO2)cc(OCC2CO2)c1 (centres undefined)
[reply] True

[ask] // return assay outcome for "CCCCCCCC/C=C\CCCCCCCC(=O)N(C)CC(=O)O"
[reply] True

New cases:
[ask] Per the assay record, what outcome was assigned to "Cc1cccc(Br)c1" ?
[reply] False

[ask] Per the records of this test, what outcome belongs to "Cc1oc(-c2ccccc2)nc1CCOc1ccc(C[C@H](Nc2ccccc2C(=O)c2ccccc2)C(=O)O)cc1" ?
[reply] True

[ask] How was "NCCCCCCNCCCCCCN" classified in this test?
[reply] False
